Biological target: Nuclear receptor coactivator 2 (Homo sapiens) (UniProt Q15596)
Sequence (Q15596 whole entry, looked up): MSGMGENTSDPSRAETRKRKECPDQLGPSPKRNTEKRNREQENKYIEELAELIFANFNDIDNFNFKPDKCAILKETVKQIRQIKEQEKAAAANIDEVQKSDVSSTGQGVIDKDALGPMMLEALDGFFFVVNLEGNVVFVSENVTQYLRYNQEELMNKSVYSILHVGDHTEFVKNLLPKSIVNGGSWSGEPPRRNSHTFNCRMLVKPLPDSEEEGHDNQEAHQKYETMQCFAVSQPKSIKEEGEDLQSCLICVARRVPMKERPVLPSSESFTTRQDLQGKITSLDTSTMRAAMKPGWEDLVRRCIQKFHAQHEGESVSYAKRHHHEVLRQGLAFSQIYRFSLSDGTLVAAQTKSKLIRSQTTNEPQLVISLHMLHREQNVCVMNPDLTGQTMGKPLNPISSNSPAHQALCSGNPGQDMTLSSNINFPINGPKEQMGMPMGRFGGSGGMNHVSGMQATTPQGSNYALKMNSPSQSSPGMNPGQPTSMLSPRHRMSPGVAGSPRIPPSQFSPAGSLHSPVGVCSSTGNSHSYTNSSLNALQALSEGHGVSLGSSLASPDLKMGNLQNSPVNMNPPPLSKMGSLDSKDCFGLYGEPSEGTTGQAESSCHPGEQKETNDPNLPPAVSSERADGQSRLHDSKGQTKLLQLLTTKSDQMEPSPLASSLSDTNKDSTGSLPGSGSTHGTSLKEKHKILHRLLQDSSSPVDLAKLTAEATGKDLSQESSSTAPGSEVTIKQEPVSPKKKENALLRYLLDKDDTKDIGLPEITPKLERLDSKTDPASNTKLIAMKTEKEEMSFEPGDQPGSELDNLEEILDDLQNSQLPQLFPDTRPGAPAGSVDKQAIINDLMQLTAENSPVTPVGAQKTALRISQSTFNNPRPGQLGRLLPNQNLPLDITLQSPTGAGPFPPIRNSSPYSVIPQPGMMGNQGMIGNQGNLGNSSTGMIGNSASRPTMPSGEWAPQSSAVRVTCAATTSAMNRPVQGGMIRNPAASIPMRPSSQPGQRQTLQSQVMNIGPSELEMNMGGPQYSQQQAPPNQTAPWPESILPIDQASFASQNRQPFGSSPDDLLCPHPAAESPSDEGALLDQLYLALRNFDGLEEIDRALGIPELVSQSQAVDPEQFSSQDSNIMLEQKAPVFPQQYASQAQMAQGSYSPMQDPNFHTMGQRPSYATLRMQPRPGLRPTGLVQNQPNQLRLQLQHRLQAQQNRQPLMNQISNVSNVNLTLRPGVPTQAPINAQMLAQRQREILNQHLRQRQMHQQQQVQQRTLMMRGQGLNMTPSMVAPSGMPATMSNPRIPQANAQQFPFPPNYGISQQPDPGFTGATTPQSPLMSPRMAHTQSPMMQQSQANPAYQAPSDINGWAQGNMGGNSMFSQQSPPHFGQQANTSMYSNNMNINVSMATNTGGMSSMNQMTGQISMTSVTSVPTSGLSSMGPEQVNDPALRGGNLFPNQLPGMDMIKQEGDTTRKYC
Assay: SRC2 coactivator transcriptional activity inhibitors, confirmation, cell-based, luminescence, HEK293, triplicate (AID 652008);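 note: 0% = DMSO-treated cells and 100% = Gossypol at 36 µM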
Details: HEK293 GAL4-SRC2 luciferase reporter, at 8.9 µM
Active and inactive are the calls of the source.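 Rule for the calls: active = mean inhibition above 46.5%, the solvent-only control mean plus 3 SD; inactive = the rest.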
Outcomes: T (active), F (inactive)

>>> print(df.to_string())
                                    compound  group
 0       Cc1noc(/C=C/c2ccccn2)c1[N+](=O)[O-]      F
 1  Cc1ccc(C(C)C)c(OCc2ccc(C(=O)N/N=C/c3cccc(O)c3O)cc2)c1      T
 2  COc1cccc(/C=N/NC(=O)c2c(-c3ccccc3)noc2C)c1O      F
 3  CCN(CC)c1ccc(-n2c(C)c(C(C)=O)c(C(C)=O)c2C)cc1      F
 4        COC(=O)c1ccc(-c2nc3cc(N)ccc3o2)cc1      T
 5  Cc1ccc(S(=O)(=O)/C(=C/Cl)NC(=O)c2ccccc2)cc1      T
 6  C=CCNc1nc2ccccc2nc1NS(=O)(=O)c1ccc(Cl)cc1      F
 7  C=C1C(=O)[C@@]23[C@H](O)C[C@@H]4C(C)(C)CC[C@H](O)[C@@]4(C)[C@@H]2CC[C@@H]1[C@H]3O      T
 8  COC(=O)c1ccc(CSc2nc3sc(C)c(C)c3c(=O)[nH]2)cc1      F
 9  CCOc1cccc(NC(=O)C2CCCN(S(=O)(=O)c3ccc(OC)cc3)C2)c1 (configuration not stated)      F
10  COc1ccc(C(=O)OCC(=O)Nc2ccc3c(c2)OCCO3)c(OC)c1      F
11  CC(Sc1nnc(CN2CCCC2)n1Cc1ccccc1)C(=O)Nc1ccc(F)cc1 (configuration not stated)      F
12  CC(C)(C)c1ccc(/C=C/C(=O)NCCCN2CCOCC2)cc1      F
13  CC1CCCc2sc3ncn(N)c(=N)c3c21 (configuration not stated)      F
14  O=C(c1ccc(S(=O)(=O)c2ccc(F)cc2)c([N+](=O)[O-])c1)N1CCCCCC1      F
15             CC(C)(C)c1ccc(SCCc2ccncc2)cc1      F
16              Cc1ccc(C(=O)c2cccc(N)c2)cc1C      T
17  Cc1onc(C(=O)N2CCC(Cc3ccccc3)CC2)c1[N+](=O)[O-]      F
18  NC(=S)NN=Cc1nccc2c(C(F)(F)C(F)(F)C(F)(F)F)cccc12      F
19  CS(=O)(=O)c1ccc(Cl)c(NC(=O)c2cccc(-n3cnnn3)c2)c1      F
20  CS(=O)(=O)N(CCC#N)Cc1ccc(/C=C2\C(=O)Nc3ccccc32)o1      F
21           Cc1cccc(N(Cc2ccccc2)C(=O)CCl)c1      F

---

Target: COUP transcription factor 2 (Homo sapiens)
Experiment: NR2F2 transcriptional activity inhibitors, confirmation, cell-based, luciferase reporter, HEK293, triplicate (AID 687008);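 note: 100% = cells given the luciferase reporter alone without the COUP-TF2 vector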
Conditions: HEK293 NGFI-A luciferase reporter, luminescence; at 8.5 µM
This is one part of the list. The source made the active and inactive calls.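 How the source made its calls: active means mean inhibition over three repeats above a set limit taken from the earlier primary screen (cut at about 38% in these data); inactive means the rest.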
Outcomes: active, inactive

In [3]: df
Out[3]:
                                   compound     group
0  Cc1ccccc1OCC(=O)Nc1ccc(N2CCN(C(=O)C(C)C)CC2)c(Cl)c1  inactive
1  O=C(c1c(F)cccc1F)N1CCN(S(=O)(=O)c2ccc3c(c2)OCCO3)CC1  inactive
2  COc1ccc(C(=O)Nc2ccccc2C(=O)N/N=C/c2ccc(O)c(OC)c2)cc1    active
3  O=C1C=C(c2ccnc3cc(Cl)ccc23)C[C@@H](c2ccc3c(c2)OCO3)C1    active
4  COc1ccc(OC)c(NC(=O)c2cc(-c3cc(F)ccc3OCC3CCCO3)n[nH]2)c1 (stereo not given)  inactive
5  Cc1ccc(C)c(N2CCN(C(=O)CCCCCn3c(=S)[nH]c4ccc(N5CCOCC5)cc4c3=O)CC2)c1    active
6    COc1cccc(CNc2nc(NCc3cccs3)nc3ccsc23)c1  inactive
7  O=c1oc2ccccc2cc1-c1cn(-c2ccccc2)c(=S)[nH]1    active
8    COc1ccccc1CNc1nc(Nc2ccccc2Cl)c2sccc2n1  inactive
9  CN(c1cccc(NC(=O)c2ccc(CN3CCc4ccccc4C3)cc2)c1)S(C)(=O)=O    active

---

Experiment: VP16 transactivation reporter inhibitors, counter-screen for LRH-1 inverse agonist project, cell-based, luminescence, high throughput (AID 651615)
Details: Gal4-VP16 luciferase reporter cells, at 3.6 µM, stronger effect = higher value
Active and inactive are the calls of the source. Rule as the data show it: active = inhibition above about 33%; inactive = the rest.
assay.metric: inhibition

                                    compound  assay_metric    measured_result
 0  COc1ccc(CNC(=O)c2sc(=O)n(Cc3ccc(-c4ccccc4)cc3)c2C)cc1OC    inhibition     31.6% (active)
 1  Cc1ccc2c(c1)c(/C=C/c1cc[n+](C)cc1)c(C)n2C    inhibition       80% (active)
 2         CCCOc1ccc(Cc2c(Cl)nc(SC)nc2NC)cc1    inhibition     35.5% (active)
 3  Cc1sc(NC(=S)NC(=O)CCc2ccccc2)c(C(N)=O)c1C    inhibition   11.8% (inactive)
 4  O=C1NC(=O)C(c2ccc(F)cc2)N1 (stereo not drawn)    inhibition   4.11% (inactive)
 5  O=C(c1ccccc1)c1nn(-c2ccc(Cl)cc2)c(=O)cc1C(F)(F)F    inhibition     74.8% (active)
 6     Cc1ccc(C(=O)Nc2sc3c(c2C(=O)O)CCCC3)o1    inhibition     61.7% (active)
 7       Cc1ccccc1Nc1nc(-c2cccnc2)nc2ccccc12    inhibition  -10.5% (inactive)
 8      CC(C)(C)NCC(=Cc1ccccc1)C(=O)c1ccccc1    inhibition     89.1% (active)
 9       CCn1c2ccccc2c2cc(/C=N/n3cnnc3)ccc21    inhibition   10.1% (inactive)
10  COc1cccc(/C=N\NC(=O)c2ccc(Cn3cc(Br)c([N+](=O)[O-])n3)o2)c1O    inhibition     73.2% (active)
11  Cc1c(C#N)c(O)n(CCO)c(=O)c1N=Nc1ccc2c(c1)COC2=O    inhibition     -1% (inactive)
12  Cc1ccc(NC(=O)C2=C(c3ccccc3)S(=O)(=O)CCS2(=O)=O)cc1    inhibition     48.5% (active)
13     C/C(=N\Nc1cc(C(F)(F)F)ccc1Cl)c1ccncc1    inhibition   3.73% (inactive)
14  Cc1sc2ncnc(NCCc3ccc(S(N)(=O)=O)cc3)c2c1C    inhibition       50% (active)
15    O=NN(CC(=O)NNc1ccccc1)CC(=O)NNc1ccccc1    inhibition     67.5% (active)
16  CC(=O)c1cn(CC(=O)Nc2ccc(C)cc2C)c2ccccc12    inhibition     47.4% (active)
17  Cc1ccc(S(=O)(=O)Nc2ccc3c(c2)n(C)c(=O)n3C)cc1    inhibition  -96.8% (inactive)
18  Cc1cc2sc3ccc(C#CC4(O)CCCCC4)cc3c(=O)c2cc1C    inhibition     88.9% (active)
19  COC(=O)c1ccc(CNC(=O)COC(=O)c2cc(Cl)nc(Cl)c2)cc1    inhibition   11.2% (inactive)
20  CCOc1ccccc1C(=O)Nc1cc2c(cc1N1CCCC1)n(CC)c(=O)n2CC    inhibition     49.6% (active)
21  Cc1c(C(=O)NC(C)c2ccncc2)oc2ccccc12 (stereo not drawn)    inhibition  -7.87% (inactive)
22            CCCCCn1c2c(c(=N)c3ccccc31)CCC2    inhibition     90.9% (active)

---

Target: Protein phosphatase methylesterase 1 (Homo sapiens)
Assay: PME-1 inhibitor activity retest, confirmation, biochemical, fluorescence polarization, FP-Rh probe, triplicate (AID 2171);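 note: 0% = enzyme with DMSO and 100% = wells lacking PME-1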
Details: recombinant PME-1, FP-Rh probe fluorescence polarization; at 5.9 µM; stronger effect = higher value
assay.metric: inhibition (%)

In [3]: df
Out[3]:
                                    compound  measured_result
 0   CCc1cc(/C(Cc2ccc3ccccc3n2)=N\O)c(O)cc1O             30.8
 1  CCCC(=Nc1ccc(N)cc1)C1=C(O)C(C(=O)OC)C(C)(C)CC1=O (stereo unspecified)             4.48
 2  S=C(NCc1ccccc1)NCc1cccc(CNC(=S)NCc2ccccc2)c1             3.07
 3  Cc1c(C(=O)O)cccc1-c1ccc(/C=N/Nc2ccc(Br)cc2)o1             39.6
 4   COc1ccc(/C=N/Nc2cc(C)nc3ccc(Br)cc23)cc1             12.9
 5  N#Cc1cc2ccccc2nc1SCC(=O)Nc1ccccc1N1CCOCC1             20.3
 6  O=C1c2ccccc2-c2onc3ccc(NCCCn4ccnc4)c1c23              163
 7  C/C(=N\Nc1cccc([N+](=O)[O-])c1)c1ccccc1O             39.4
 8   CCOc1ccc(NC(=S)NNc2ccnc3cc(Cl)ccc23)cc1             28.3
 9     Nc1n[nH]c(C2CC2)c1N=Nc1ccc(Cl)c(Cl)c1             20.6
10  N#Cc1c(N)n(CCOC(=O)c2cccc([N+](=O)[O-])c2)c2nc3ccccc3nc12             19.5

src = PubChem BioAssay
